# Tested System: HIV-1 integrase (Human immunodeficiency virus type 1 group M subtype B, UniProt P04585)
Assay Metric: IC50 (µM)
Give just the number in µM; leave the unit off.

Value of measured IC50 for the entry COC(=O)c1nc(-c2csc([C@@H](NC(=O)c3ccccc3)C(C)C)n2)oc1C : 365

* * *

# Protocol Notes: Cytotoxicity to HepG2.2.15 cells (MTT method)
# Format: cell-based
# Experimental Conditions: human, HepG2.2.15 cells (HBV-transgenic human hepatoma cells), 50% death concentration, eighth day
Assay Metric: CC50 (µM)
Give just the number in µM; leave the unit off.

COC(=O)c1nc(-c2ncco2)sc1-c1ccc(F)cc1Cl ... 200

Value of measured CC50 for the entry CCOC(=O)c1nc(-c2cccs2)[nH]c1CC(C)C : 90.3

Value of measured CC50 for the entry CCCCc1oc(-c2ccc(CCC)s2)nc1C(=O)OCC : 80

Value of measured CC50 for the entry Clc1nc(-c2nccs2)[nH]c1-c1ccccc1 : 123

* * *

# Test system: hepatitis B virus (HBV)
# Protocol Notes: HBV-DNA replication in HepG2.2.15 culture supernatant (fluorescent quantification PCR)
# Assay type: cell-based
# Experimental Conditions: Hepatitis B virus; HepG2.2.15 supernatant, eighth day, fluorescent quantification PCR; read-out: DNA replication IC50
The compounds listed here are annotated with their IC50.
Give just the number in µM; leave the unit off.

These solved cases illustrate the format of a correct answer.
COC(=O)c1nc(-c2csc([C@@H](NC(=O)c3cccs3)C(C)C)n2)oc1C ... 76
CCOC(=O)c1nc(-c2ccc(C)s2)[nH]c1CC(C)C ... 4.65

Value of measured IC50 for the entry CCOC(=O)c1nc(-c2nc3cc(OC)ccc3s2)sc1CC(C)C : 23

Value of measured IC50 for the entry CCOC(=O)c1nc(-c2ccc(CC)s2)oc1CC(C)C : 22.5

Value of measured IC50 for the entry CCOC(=O)c1nc(-c2cc3ccccc3[nH]2)[nH]c1CC(C)C : 0.07

Value of measured IC50 for the entry CCOC(=O)c1nc(-c2nc(CC)cs2)sc1CC(C)C : 0.14

Value of measured IC50 for the entry CCCCc1sc(-c2cccs2)nc1C(=O)OCC : 11.7

Value of measured IC50 for the entry CCOC(=O)c1nc(-c2cccs2)[nH]c1C1CCCCC1 : 4.5

Value of measured IC50 for the entry CC(C)Cc1sc(-c2nccs2)nc1C(=O)O : 153

* * *

The compounds listed here are annotated with their CC50.
# Protocol Notes: Cytotoxicity to HepG2.2.15 cells (MTT method)
# Assay type: cell-based
# Experimental Conditions: human, HepG2.2.15 cells (HBV-transgenic human hepatoma cells), 50% death concentration, eighth day
Give just the number in µM; leave the unit off.

CCOC(=O)c1nc(-c2ccc(C)s2)oc1CC(C)C ... 80
CCOC(=O)c1nc(-c2cc3ccccc3[nH]2)[nH]c1CC(C)C ... 3.5

Value of measured CC50 for the entry COC(=O)c1nc(-c2csc([C@@H](NC(=O)c3cccs3)C(C)C)n2)oc1C : 154

* * *

# Test system: hepatitis B virus (HBV)
# Protocol Notes: HBV-DNA replication in HepG2.2.15 culture supernatant (fluorescent quantification PCR)
# Format: cell-based
# Experimental Conditions: Hepatitis B virus; HepG2.2.15 supernatant, eighth day, fluorescent quantification PCR; read-out: DNA replication IC50
Exam item: assign satisfied to entries whose IC50 is below 2 µM and not satisfied to entries at or above 2 µM. Note that a value of exactly 2 µM receives not satisfied.

Strictly below 2 µM: is that where IC50 of COC(=O)c1nc(-c2nccs2)sc1CC(C)C sits?
not satisfied

Strictly below 2 µM: is that where IC50 of c1ccc(-c2cnc(-c3cccs3)o2)cc1 sits?
satisfied

Strictly below 2 µM: is that where IC50 of CCCCc1oc(-c2ccc(CCC)s2)nc1C(=O)OCC sits?
not satisfied

Strictly below 2 µM: is that where IC50 of c1ccc(-c2cnc(-c3cccs3)s2)cc1 sits?
satisfied

Strictly below 2 µM: is that where IC50 of CCOC(=O)c1nc(-c2ncc(C)s2)sc1CC(C)C sits?
satisfied

Strictly below 2 µM: is that where IC50 of CCOC(=O)c1nc(-c2cccs2)[nH]c1C1CC1 sits?
not satisfied

Strictly below 2 µM: is that where IC50 of CCCCc1oc(-c2cccs2)nc1C(=O)OCC sits?
not satisfied

Strictly below 2 µM: is that where IC50 of CCOC(=O)c1nc(-c2nccs2)[nH]c1C1CC1 sits?
not satisfied

* * *

# Test system: Vero (African green monkey kidney) cells
# Protocol Notes: 50% toxicity concentration in the anti-herpes virus screen (Vero cells)
# Experimental Conditions: 50% toxity concentration, Table 3-1 (herpes virus screen, Vero cells)
The compounds listed here are annotated with their TC50.
Give just the number in µg/mL; leave the unit off.

These solved cases illustrate the format of a correct answer.
COC(=O)c1nc(-c2csc([C@@H](NC(=O)COCc3ccccc3)C(C)C)n2)oc1C ... 168.24
COC(=O)c1nc(-c2csc([C@@H](NC(=O)c3cccc(F)c3)C(C)C)n2)oc1C ... 198.43
COC(=O)c1coc([C@H](C)NC(=O)c2nc(-c3csc([C@@H](NC(=O)C4CCCC4)C(C)C)n3)oc2C)n1 ... 198.43
COC(=O)c1coc([C@H](C)NC(=O)c2nc(-c3csc([C@@H](NC(=O)C4CC4)C(C)C)n3)oc2C)n1 ... 707.11
COC(=O)c1nc(-c2csc([C@@H](NC(=O)c3csc([C@@H](NC(=O)OC(C)(C)C)C(C)C)n3)C(C)C)n2)oc1C ... 176.78

// TC50 (Vero (African green monkey kidney) cells) for COC(=O)c1nc(-c2csc([C@@H](NC(=O)C3CC3)C(C)C)n2)oc1C = 707.11

* * *

# Protocol Notes: Cytotoxicity to HepG2.2.15 cells (MTT method)
# Assay type: cell-based
# Experimental Conditions: human, HepG2.2.15 cells (HBV-transgenic human hepatoma cells), 50% death concentration, eighth day
The molecules listed here are annotated with their CC50.
Give just the number in µM; leave the unit off.

CC(C)Cc1sc(-c2nccs2)nc1C(=O)NCc1ccccc1 ... 80
CCOC(=O)c1nc(-c2cscn2)sc1CC(C)C ... 116
c1ccc(-c2cnc(-c3cccs3)[nH]2)cc1 ... 53.2

Please find the next molecule below.
Value of measured CC50 for the entry CCCc1[nH]c(-c2nccs2)nc1C(=O)OCC : 548

* * *

The compounds listed here are annotated with their TC50.
# Test system: MDCK (canine kidney) cells
# Protocol Notes: 50% toxicity concentration in the anti-influenza screen (MDCK cells)
# Type: cell-based
# Experimental Conditions: 50% toxity concentration, Table 3-2 (influenza screen, MDCK cells)
Give just the number in µg/mL; leave the unit off.

These solved cases illustrate the format of a correct answer.
CCC(=O)N[C@H](c1nc(-c2nc(C(=O)N[C@@H](C)c3nc(C(=O)OC)co3)c(C)o2)cs1)C(C)C [Wang489.55] ... 577.35
COC(=O)c1nc(-c2csc([C@@H](NC(=O)C3CCCC3)C(C)C)n2)oc1C [Wang391.49-1] ... 250
COC(=O)c1nc(-c2csc([C@@H](NC(=O)CCC=C(C)C)C(C)C)n2)oc1C [Yao405.51] ... 577.35
COC(=O)c1coc([C@H](C)NC(=O)c2nc(-c3csc([C@@H](NC(=O)C4CCCC4)C(C)C)n3)oc2C)n1 [Wang529.61-1] ... 191.74

Value of measured TC50 for the entry COC(=O)c1nc(-c2csc([C@@H](NC(=O)C3CCC3)C(C)C)n2)oc1C [Wang 377.46-1] : 500

Value of measured TC50 for the entry COC(=O)c1nc(-c2csc([C@@H](NC(=O)c3ccccc3OC)C(C)C)n2)oc1C [Wang429.49] : 333.33

Value of measured TC50 for the entry COC(=O)c1coc([C@H](C)NC(=O)c2nc(-c3csc([C@@H](NC(=O)Cc4ccccc4)C(C)C)n3)oc2C)n1 [Wang 551.62] : 303.69

* * *

The molecules listed here are annotated with their CC50.
# Protocol Notes: Cytotoxicity to HepG2.2.15 cells (MTT method)
# Format: cell-based
# Experimental Conditions: human, HepG2.2.15 cells (HBV-transgenic human hepatoma cells), 50% death concentration, eighth day
Give just the number in µM; leave the unit off.

Value of measured CC50 for the entry CCCCc1sc(-c2cccs2)nc1C(=O)OCC [Compound C295-1] : 50

Value of measured CC50 for the entry CCOC(=O)c1nc(-c2ccc(C)s2)[nH]c1CC(C)C [Compound C292] : 139

Value of measured CC50 for the entry CC(C)Cc1sc(-c2nccs2)nc1C(=O)O [Wang268-1] : 437

Value of measured CC50 for the entry COC(=O)c1nc(-c2csc([C@@H](NC(=O)c3ccccc3F)C(C)C)n2)oc1C [Wang417.46-J] : 755
